Where do the numbers come from? From paper doi:10.1101/2024.10.12.618019v1.

Let's go through some recorded Ki values for 5HT2C (Homo sapiens, UniProt P28335) together.

For 5HT2C (Homo sapiens, UniProt P28335), give the measured Ki of the entry Cc1cc(C(N)=O)cc(-c2cc(F)c(CNC3Cc4ccccc4C3)c(F)c2)c1
> 10 µM

For 5HT2C (Homo sapiens, UniProt P28335), give the measured Ki of the entry Cc1cc(-c2cc(F)c(CNC3Cc4ccccc4C3)c(F)c2)cc(-c2ncn[nH]2)c1
> 10 µM

For 5HT2C (Homo sapiens, UniProt P28335), give the measured Ki of the entry Cc1cc(C(N)=O)cc(-c2ccc(CNC3Cc4ccccc4C3)c(F)c2)c1
> 10 µM

For 5HT2C (Homo sapiens, UniProt P28335), give the measured Ki of the entry Cc1cc(C(N)=O)cc(-c2ccc(CNC3Cc4ccccc4C3)cc2)c1
2.27 µM

For 5HT2C (Homo sapiens, UniProt P28335), give the measured Ki of the entry Cc1cc(-c2ccc(CNC3Cc4ccccc4C3)cc2)cc(-c2nc[nH]n2)c1
0.47 µM

For 5HT2C (Homo sapiens, UniProt P28335), give the measured Ki of the entry Cc1cc(-c2ccc(CNC3Cc4ccccc4C3)c(F)c2)cc(-c2ncn[nH]2)c1
> 10 µM
